- Test system: YT (IL-2 2.5 ng/mL)
- assay-details: percent inhibition of viability; higher = more inhibition
- details: 72 h; 10 nM
readout: percent inhibition of viability (%)
// note: answer is a bare numeric in %

Past entries and their recorded results:
{"compound": "NC(=O)c1cccc(-c2cccc(OC(=O)NC3CCCCC3)c2)c1 [URB597] (max concentration tested 1000 nM)", "measure-unit": "%", "measurement": 2.53}
{"compound": "CC1(C)NC(=O)N(c2ccc([N+](=O)[O-])c(C(F)(F)F)c2)C1=O [Nilutamide] (max concentration tested 10000 nM)", "measure-unit": "%", "measurement": -6.16}
{"compound": "Cn1c(=O)n(-c2ccc(C(C)(C)C#N)cc2)c2c3cc(-c4cnc5ccccc5c4)ccc3ncc21 [Dactolisib] (max concentration tested 1000 nM)", "measure-unit": "%", "measurement": 15.7}
{"compound": "C[C@@H](C(=O)O)c1ccc(-c2ccccc2)c(F)c1 [Tarenflurbil] (max concentration tested 10000 nM)", "measure-unit": "%", "measurement": -10.1}

Exam item: Please tell me: percent inhibition of viability of CC(C)(C)NC(=O)[C@H]1CC[C@H]2[C@@H]3CC[C@H]4NC(=O)C=C[C@]4(C)[C@H]3CC[C@]12C [Finasteride] (max concentration tested 10000 nM) , system YT (IL-2 2.5 ng/mL)?
Marked response: -7.13

Exam item: Please tell me: percent inhibition of viability of O=P1(NCCCl)OCCCN1CCCl (stereo unspecified) [Ifosfamide] (max concentration tested 10000 nM) , system YT (IL-2 2.5 ng/mL)?
Marked response: -6.22

* * *

- Test system: normal primary NK cells, pool 2 (3 donors) (IL-2 2.5 ng/mL)
- assay-details: percent inhibition of viability; higher = more inhibition
- details: 72 h; 25 nM
Recorded percent inhibition of viability values for a group of compounds are listed next.
// note: answer is a bare numeric in %

Past entries and their recorded results:
{"compound": "COc1ccc2c(OCc3nnc4ccc(-c5ccccc5)nn34)ccnc2c1 [AMG-208] (max concentration tested 2500 nM)", "readout": "percent inhibition of viability", "measurement": 4.86}
{"compound": "CC(=O)OC[C@H]1O[C@@H]([S-])[C@H](OC(C)=O)[C@@H](OC(C)=O)[C@@H]1OC(C)=O.CCP(CC)CC.[Au+] [Auranofin] (max concentration tested 2500 nM)", "readout": "percent inhibition of viability", "measurement": 8.16}
{"compound": "COc1cc(Nc2ncc(F)c(Nc3ccc4c(n3)N(COP(=O)(O)O)C(=O)C(C)(C)O4)n2)cc(OC)c1OC [Fostamatinib] (max concentration tested 2500 nM)", "readout": "percent inhibition of viability", "measurement": -4.65}

Exam item: Name the reported percent inhibition of viability value associated with the compound COC[C@H](NC(=O)c1cnc(C)s1)C(=O)N[C@@H](COC)C(=O)N[C@@H](Cc1ccccc1)C(=O)[C@@]1(C)CO1 [Oprozomib] (max concentration tested 2500 nM)
Marked response: 62.8

* * *

- System: normal primary NK cells, pool 1 (3 donors), resting (IL-2 0 ng/mL)
- assay-details: relative IC50 (inflection point of fitted viability curve, relative to fitted max inhibition); higher = less sensitive
- details: 72 h
readout: relative IC50

{"molecule": "O=C(O)CCCc1ccc(N(CCCl)CCCl)cc1 [Chlorambucil]", "subject-of-test": "normal primary NK cells, pool 1 (3 donors), resting (IL-2 0 ng/mL)", "relative IC50": "1660 nM"}
{"molecule": "Cn1c(CCCC(=O)O)nc2cc(N(CCCl)CCCl)ccc21 [Bendamustine]", "subject-of-test": "normal primary NK cells, pool 1 (3 donors), resting (IL-2 0 ng/mL)", "relative IC50": "3780 nM"}
{"molecule": "CC(C)[C@H](C(=O)Nc1ccc(C(=O)NO)cc1)c1ccccc1 [AR-42]", "subject-of-test": "normal primary NK cells, pool 1 (3 donors), resting (IL-2 0 ng/mL)", "relative IC50": "297 nM"}
{"molecule": "CC/C(=C(\\c1ccc(O)cc1)c1ccc(OCCN(C)C)cc1)c1ccccc1 [4-hydroxytamoxifen]", "subject-of-test": "normal primary NK cells, pool 1 (3 donors), resting (IL-2 0 ng/mL)", "relative IC50": "3750 nM"}
{"molecule": "C=CCN(/C=C1/C(=O)O[C@H](COC)[C@@]2(C)C1=C(O)C(=O)C1=C2[C@H](OC(C)=O)C[C@]2(C)C(=O)CC[C@@H]12)CC=C [Sonolisib]", "subject-of-test": "normal primary NK cells, pool 1 (3 donors), resting (IL-2 0 ng/mL)", "relative IC50": "1630 nM"}

Exam item: Name the reported relative IC50 value associated with the molecule Nc1nc(Cl)nc2c1ncn2[C@@H]1O[C@H](CO)[C@@H](O)[C@@H]1F [Clofarabine]
Marked response: 7.76 nM

Exam item: Name the reported relative IC50 value associated with the molecule COc1cccc2c1C(=O)c1c(O)c3c(c(O)c1C2=O)C[C@@](O)(/C(CO)=N/NC(=O)CCCCCN1C(=O)C=CC1=O)C[C@@H]3O[C@H]1C[C@H](N)[C@H](O)[C@H](C)O1 [Aldoxorubicin]
Marked response: 71.6 nM

From: the supplement of paper PMC5908809
